# measured on: Cytochrome P450 1A2 (Homo sapiens)
# Sequence (P05177 whole entry): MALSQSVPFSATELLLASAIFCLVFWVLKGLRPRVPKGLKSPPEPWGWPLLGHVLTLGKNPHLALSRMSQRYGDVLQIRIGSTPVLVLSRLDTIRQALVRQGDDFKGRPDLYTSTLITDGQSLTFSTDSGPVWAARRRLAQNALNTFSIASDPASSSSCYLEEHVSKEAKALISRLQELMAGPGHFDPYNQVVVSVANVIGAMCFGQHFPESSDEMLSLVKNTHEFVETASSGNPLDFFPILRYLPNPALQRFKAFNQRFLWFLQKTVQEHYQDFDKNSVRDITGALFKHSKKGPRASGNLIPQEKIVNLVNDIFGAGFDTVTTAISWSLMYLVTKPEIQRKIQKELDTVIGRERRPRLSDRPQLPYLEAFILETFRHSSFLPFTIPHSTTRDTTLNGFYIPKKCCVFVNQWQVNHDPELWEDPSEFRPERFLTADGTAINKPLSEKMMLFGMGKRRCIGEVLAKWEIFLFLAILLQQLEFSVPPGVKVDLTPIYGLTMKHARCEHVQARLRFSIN

smiles text: C[C@H]1CO[C@@H]2Cn3cc(C(=O)NCc4ccc(F)nc4F)c(=O)c(O)c3C(=O)N12
IC50: > 10 µM

###

# assay overview: Tmax in Sprague-Dawley rat at 10 mg/kg, po up to 24 hrs by LC-MS/MS analysis
# Format: ADME, organism-based
# test parameters: in vivo

smiles text: C[C@H]1CO[C@@H]2Cn3cc(C(=O)NCc4ccc5nonc5c4)c(=O)c(O)c3C(=O)N12
Tmax (h): 6.67

###

# assay overview: Half life in Sprague-Dawley rat at 10 mg/kg, po up to 24 hrs by LC-MS/MS analysis
# Assay type: ADME, organism-based
# test parameters: in vivo

smiles text: C[C@H]1CO[C@@H]2Cn3cc(C(=O)NCc4ccc5nonc5c4)c(=O)c(O)c3C(=O)N12
half-life (h): 35

###

# assay overview: Drug concentration in Sprague-Dawley rat at 5 mg/kg, po after 8 hrs by LC-MS/MS analysis
# Assay type: ADME, organism-based
# test parameters: in vivo, read-out: Drug uptake
measured attribute: concentration at 8 h (ng/mL)

smiles text: C[C@H]1CO[C@@H]2Cn3cc(C(=O)NCc4ccc(F)nc4F)c(=O)c(O)c3C(=O)N12
measured attribute: concentration at 8 h
value unit: ng/mL
recorded number: 7910

###

# assay overview: Stability in human plasma assessed as parent compound remaining at 1 uM up to 24 hrs by LC-MS/MS analysis
# Format: ADME, cell-free
# test parameters: read-out: Stabilty
measured attribute: remaining at 24 h, 1 µM (%)

smiles text: C[C@H]1CO[C@@H]2Cn3cc(C(=O)NCc4ccc(F)nc4F)c(=O)c(O)c3C(=O)N12
recorded number: 95

###

# assay overview: Oral bioavailability in Sprague-Dawley rat at 5 mg/kg up to 24 hrs by LC-MS/MS analysis
# Type: ADME, organism-based
# test parameters: in vivo
measured attribute: bioavailability (%)

smiles text: C[C@H]1CO[C@@H]2Cn3cc(C(=O)NCc4ccc(F)nc4F)c(=O)c(O)c3C(=O)N12
measured attribute: bioavailability
value unit: %
recorded number: 17.5

###

Protein target, amino acids: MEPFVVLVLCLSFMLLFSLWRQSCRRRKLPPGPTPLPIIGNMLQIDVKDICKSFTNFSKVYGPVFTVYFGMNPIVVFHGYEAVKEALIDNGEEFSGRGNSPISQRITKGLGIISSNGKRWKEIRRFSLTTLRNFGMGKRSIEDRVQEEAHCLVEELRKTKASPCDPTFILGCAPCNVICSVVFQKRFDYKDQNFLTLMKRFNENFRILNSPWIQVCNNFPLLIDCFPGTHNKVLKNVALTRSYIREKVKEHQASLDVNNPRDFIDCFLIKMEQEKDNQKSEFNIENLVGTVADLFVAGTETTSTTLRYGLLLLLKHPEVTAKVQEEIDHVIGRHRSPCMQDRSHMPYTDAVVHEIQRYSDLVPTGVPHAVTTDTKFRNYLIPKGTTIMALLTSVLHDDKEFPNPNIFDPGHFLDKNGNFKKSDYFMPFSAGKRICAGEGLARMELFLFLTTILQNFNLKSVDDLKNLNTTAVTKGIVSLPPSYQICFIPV
measured attribute: IC50

smiles text: C[C@H]1CO[C@@H]2Cn3cc(C(=O)NCc4ccc(F)nc4F)c(=O)c(O)c3C(=O)N12
measured attribute: IC50
result: > 10 µM
